Sourced from ChEMBL document CHEMBL1156824

tested on: Plasma; experiment: Fraction unbound in human plasma
// label = met if Fu is not less than 0.1, otherwise not met

{"compound": "C[C@]12C=CC(=O)C=C1CC[C@@H]1[C@@H]2[C@@H](O)C[C@@]2(C)[C@H]1CC[C@]2(O)C(=O)CO", "class.assignment": "met"}
{"compound": "CCCc1cc(=O)[nH]c(=S)[nH]1", "class.assignment": "met"}
{"compound": "CCCCC(=O)N(Cc1ccc(-c2ccccc2-c2nnn[nH]2)cc1)[C@H](C(=O)O)C(C)C", "class.assignment": "not met"}
{"compound": "COc1ccc(Cl)cc1C(=O)NCCc1ccc(S(=O)(=O)NC(=O)NC2CCCCC2)cc1 [GLYBURIDE]", "class.assignment": "not met"}
{"compound": "CC(C)(C)NCC(O)COc1cccc2c1CC(O)C(O)C2 (stereo not given)", "class.assignment": "met"}

* * *

organism: Homo sapiens; assay: Hepatic clearance in human; details: in vivo
Recorded CL determines the group label, using 0: < 0.8 mL/min/kg; 1: ≥ 0.8 mL/min/kg and < 5 mL/min/kg; 2: ≥ 5 mL/min/kg

{"compound": "C[C@H]1c2cccc(O)c2C(=O)C2=C(O)[C@]3(O)C(=O)C(C(N)=O)=C(O)[C@@H](N(C)C)[C@@H]3[C@@H](O)[C@@H]21.O", "class.assignment": 0}
{"compound": "CC[C@H](C)C(=O)O[C@H]1C[C@H](O)C=C2C=C[C@H](C)[C@H](CC[C@@H](O)C[C@@H](O)CC(=O)O)[C@H]21", "class.assignment": 2}
{"compound": "Cc1ccc(C(=O)Nc2ccc(S(=O)(=O)O)c3cc(S(=O)(=O)O)cc(S(=O)(=O)O)c23)cc1NC(=O)c1cccc(NC(=O)Nc2cccc(C(=O)Nc3cc(C(=O)Nc4ccc(S(=O)(=O)O)c5cc(S(=O)(=O)O)cc(S(=O)(=O)O)c45)ccc3C)c2)c1", "class.assignment": 0}
{"compound": "CC(C)(C)NCC(O)COc1ccc(NC(=O)NC2CCCCC2)cc1 (stereo unspecified)", "class.assignment": 1}
{"compound": "CN(C)CCCC1(c2ccc(F)cc2)OCc2cc(C#N)ccc21 (stereo unspecified)", "class.assignment": 1}
{"compound": "COc1cccc(C2(O)CCCCC2CN(C)C)c1 (stereo unspecified)", "class.assignment": 2}
{"compound": "CC(C)(O)c1ccccc1CC[C@@H](SCC1(CC(=O)O)CC1)c1cccc(/C=C/c2ccc3ccc(Cl)cc3n2)c1", "class.assignment": 0}
{"compound": "CCCC1O[C@@H]2C[C@H]3[C@@H]4CCC5=CC(=O)C=C[C@]5(C)[C@H]4[C@@H](O)C[C@]3(C)[C@]2(C(=O)CO)O1 (stereo partly specified) [BUDESONIDE]", "class.assignment": 2}
{"compound": "COCc1c(C(C)C)nc(C(C)C)c(/C=C/[C@@H](O)C[C@@H](O)CC(=O)O)c1-c1ccc(F)cc1", "class.assignment": 1}
{"compound": "CC[C@H]1OC(=O)[C@H](C)[C@@H](O[C@H]2C[C@@](C)(OC)[C@@H](O)[C@H](C)O2)[C@H](C)[C@@H](O[C@@H]2O[C@H](C)C[C@H](N(C)C)[C@H]2O)[C@](C)(OC)C[C@@H](C)C(=O)[C@H](C)[C@@H](O)[C@]1(C)O", "class.assignment": 1}
{"compound": "O=C(c1ccccc1)c1ccc2n1CCC2C(=O)O (stereo unspecified)", "class.assignment": 0}
{"compound": "CN(C)CCC=C1c2ccccc2CCc2ccccc21", "class.assignment": 2}
{"compound": "CC[C@H]1OC(=O)[C@H](C)[C@@H](O[C@H]2C[C@@](C)(OC)[C@@H](O)[C@H](C)O2)[C@H](C)[C@@H](O[C@@H]2O[C@H](C)C[C@H](N(C)C)[C@H]2O)[C@](C)(O)C[C@@H](C)C(=O)[C@H](C)[C@@H](O)[C@]1(C)O", "class.assignment": 2}
{"compound": "COc1ccc([C@]2(C#N)CC[C@@H](C(=O)O)CC2)cc1OC1CCCC1", "class.assignment": 0}
{"compound": "O=C1C(O)=C([C@H]2CC[C@H](c3ccc(Cl)cc3)CC2)C(=O)c2ccccc21", "class.assignment": 0}
{"compound": "C#CCN(C)[C@H](C)Cc1ccccc1", "class.assignment": 2}
{"compound": "CCCc1cc(=O)[nH]c(=S)[nH]1", "class.assignment": 1}
{"compound": "Nc1ncnc2c1ncn2CCOCP(=O)(O)O", "class.assignment": 0}
{"compound": "COc1ccccc1N1CCN(CCCNc2cc(=O)n(C)c(=O)n2C)CC1", "class.assignment": 1}
{"compound": "CC(C)NCC(O)COc1ccc(CCOCC2CC2)cc1 (stereo unspecified)", "class.assignment": 1}
{"compound": "Nc1c(CC(=O)O)cccc1C(=O)c1ccc(Br)cc1", "class.assignment": 1}
{"compound": "CN(C)CCCN1c2ccccc2Sc2ccc(Cl)cc21", "class.assignment": 2}
{"compound": "C[C@H]1O[C@@H](n2cc(F)c(=O)[nH]c2=O)[C@H](O)[C@@H]1O", "class.assignment": 2}
{"compound": "CN1CCN2c3ncccc3Cc3ccccc3C2C1 (stereo unspecified)", "class.assignment": 2}
{"compound": "C[C@@H]1C(=O)O[C@H]2[C@H](O)[C@@]34[C@H]5C[C@@H](C(C)(C)C)[C@]36[C@@H](OC(=O)[C@@H]6O)O[C@@]4(C(=O)O5)[C@@]12O [GINKOLIDE B]", "class.assignment": 1}
{"compound": "CN(C(=O)c1c(O)c2ccccc2n(C)c1=O)c1ccccc1", "class.assignment": 0}
{"compound": "COC(=O)C1=C(C)NC(C)=C(C(=O)OCC(C)C)C1c1ccccc1[N+](=O)[O-] (stereo unspecified)", "class.assignment": 2}
